Ref: patent US20110052582A1

Here the recorded pKd is given for each entry.
# study.target: T1, extracellular-domain-(ECD)-comprising fragment of human CDCP1 of SEQ ID NO: 30 (human, UniProt Q9H5V8 30-663)
# T1 construct: also called CDCP1 ECD; CDCP1-ECD
# T1 sequence: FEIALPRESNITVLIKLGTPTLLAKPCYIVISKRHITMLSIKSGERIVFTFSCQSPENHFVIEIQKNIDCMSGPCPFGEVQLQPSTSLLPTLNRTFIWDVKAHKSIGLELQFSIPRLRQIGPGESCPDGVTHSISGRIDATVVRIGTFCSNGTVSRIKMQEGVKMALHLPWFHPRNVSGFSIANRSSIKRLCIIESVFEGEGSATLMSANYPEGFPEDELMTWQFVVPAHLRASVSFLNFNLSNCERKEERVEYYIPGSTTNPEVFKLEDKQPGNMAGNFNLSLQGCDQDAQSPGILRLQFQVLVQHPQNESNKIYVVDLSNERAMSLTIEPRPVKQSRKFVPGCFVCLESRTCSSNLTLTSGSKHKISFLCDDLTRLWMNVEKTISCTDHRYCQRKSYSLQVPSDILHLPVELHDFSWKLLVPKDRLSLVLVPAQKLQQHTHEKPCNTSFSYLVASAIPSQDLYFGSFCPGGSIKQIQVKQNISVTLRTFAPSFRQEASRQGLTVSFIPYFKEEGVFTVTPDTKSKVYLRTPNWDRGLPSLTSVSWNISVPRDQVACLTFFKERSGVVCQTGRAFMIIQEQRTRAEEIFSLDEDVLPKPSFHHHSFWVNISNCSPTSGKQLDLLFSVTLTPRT
# test.details: SPR (Biacore T100), antibody captured, CDCP1 ECD as analyte, 25 C, Langmuir 1:1
// returns pKd (minus log10 of molar concentration), number only

These recorded examples may help you get a feel for the data.
Exam item: Look up pKd for this binder: Humanized CUB4 Antibody No. 91 (antibody, IgG1, V domains shown, Only variable domains are tied to the antibody; Human constant region, preferably IgG1; also called hHC4-H / hLC-a) VH: EVQLVESGGGLVQPGGSLRLSCAASGFTFNSYGMSWVRQAPGKGLEWVATISSGGSYKYYVDSVKGRFTISRDNAKNSLYLQMNSLRAEDTAVYYCARHPDYDGVWFAYWGQGTLVTVSS VL: EIVLTQSPATLSLSPGERATLSCSVSSSVFYVHWYQQKPGQAPRLLIYDTSKLASGIPARFSGSGSGTDFTLTISSLEPEDFAVYYCQQWNSNPPTFGGGTKVEIK
Marked response: 8.25

Exam item: // returns reported pKd for input Humanized CUB4 Antibody No. 47 (antibody, human IgG1, V domains shown, Only variable domains are tied to the antibody; also called humanized anti-CDCP1 antibody 47; hHC4-H / hLC-K) VH: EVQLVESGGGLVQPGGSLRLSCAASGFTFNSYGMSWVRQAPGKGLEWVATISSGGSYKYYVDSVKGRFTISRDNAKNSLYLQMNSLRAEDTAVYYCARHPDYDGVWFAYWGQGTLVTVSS VL: EIVLTQSPATLSLSPGERATLSCRASSSVFYLHWYQQKPGQAPRLWIYDTSKLASGIPARFSGSGSGTDFTLTISSLEPEDFAVYYCQQWNSNPPTFGGGTKVEIK
Marked response: 8.42

Exam item: For Humanized CUB4 Antibody No. 80 (antibody, IgG1, V domains shown, Only variable domains are tied to the antibody; Human constant region, preferably IgG1; also called hHC4-H / hLC-M) VH: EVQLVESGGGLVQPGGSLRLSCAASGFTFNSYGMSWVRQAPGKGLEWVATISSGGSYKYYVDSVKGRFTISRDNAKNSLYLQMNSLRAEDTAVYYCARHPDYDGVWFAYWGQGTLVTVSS VL: EIVLTQSPATLSLSPGERATMSCGASSSVFYLHWYQQKPGLAPRLWIYDTSKLASGIPDRFSGSGSGTDFTLTISRLEPEDFAVYYCQQWNSNPPTFGGGTKVEIK , what is its reported pKd?
Marked response: 8.45

Exam item: Record request: pKd value, item Humanized CUB4 Antibody No. 69 (antibody, IgG1, V domains shown, Human constant region; also called Antibody 69; hHC4-H / hLC-L2) VH: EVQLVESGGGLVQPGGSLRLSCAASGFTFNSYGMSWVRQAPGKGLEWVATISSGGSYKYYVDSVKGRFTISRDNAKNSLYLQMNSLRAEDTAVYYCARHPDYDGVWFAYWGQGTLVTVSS VL: EIVLTQSPATLSLSPGERATMSCSVSSSVFYLHWYQQKPGQAPRLWIYDTSKLASGIPARFSGSGSGTDFTLTISSLEPEDFAVYYCQQWNSNPPTFGGGTKVEIK
Marked response: 8.59

Further cases:
Exam item: Bench note: what pKd did Humanized CUB4 Antibody No. 102 (antibody, IgG1, V domains shown, Only variable domains are tied to the antibody; Human constant region, preferably IgG1; also called hHC4-H / hLC-b) VH: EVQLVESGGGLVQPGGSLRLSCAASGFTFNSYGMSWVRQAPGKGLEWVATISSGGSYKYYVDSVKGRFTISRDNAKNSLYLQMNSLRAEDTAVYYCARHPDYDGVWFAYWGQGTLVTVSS VL: EIVLTQSPATLSLSPGERATLSCSVSSSVFYVHWYQQKPGQAPRLLIYDTSKLASGIPARFSGSGSGTDYTLTISSLEPEDFAVYYCQQWNSNPPTFGGGTKVEIK show?
Marked response: 8.27

Exam item: What does the record list as pKd for Humanized CUB4 Antibody No. 135 (antibody, IgG1, V domains shown, Human constant region, preferably IgG1; also called Antibody 135; hHC4-H / hLC-e) VH: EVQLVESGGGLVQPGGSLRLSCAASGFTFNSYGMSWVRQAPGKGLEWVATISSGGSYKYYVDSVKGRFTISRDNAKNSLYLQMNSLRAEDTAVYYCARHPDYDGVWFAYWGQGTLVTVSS VL: DIQMTQSPSSLSASVGDRVTITCSVSSSVFYVHWYQQKPGKAPKLLIYDTSKLASGVPSRFSGSGSGTDFTFTISSLQPEDIATYYCQQWNSNPPTFGGGTKVEIK ?
Marked response: 8.08
